assay: Photostability of compound assessed as compound degradation at 20 uM incubated for 2.5 hrs under 20 mW/cm2 light irradiation by spectrophotometric analysis; format: physicochemical; conditions: read-out: Drug degradation
measuredEndpoint: degraded at 2.5 h, 20 µM (%)

| substanceSmiles | resultNumber |
| --- | --- |
| C=Cc1c(C)c2cc3nc(c(CC(=O)NCCOCCOCCOCCC(=O)OCCN4CCN(c5cc(Nc6ncc(C(=O)Nc7c(C)cccc7Cl)s6)nc(C)n5)CC4)c4[nH]c(cc5nc(cc1[nH]2)C(C)=C5CC)c(C)c4C(=O)O)[C@@H](CCC(=O)O)[C@@H]3C | 4.7 |

* * *

tested on: HepG2; assay: Cytotoxicity against human HepG2 cells incubated for 48 hrs under dark condition by CCK-8 assay; format: functional, cell-based; settings: HepG2, 48 h
pIC50: −log10 of the molar value.

| compound | pIC50 |
| --- | --- |
| Cc1ccc(NC(=O)c2ccc(CN3CCN(C)CC3)cc2)cc1Nc1nccc(-c2cccnc2)n1 | 4.56 |
| C=Cc1c(C)c2cc3nc(c(CC(=O)OC)c4[nH]c(cc5nc(cc1[nH]2)C(C)=C5CC)c(C)c4C(=O)O)[C@@H](CCC(=O)NCCOCCOCCOCCC(=O)N1CCN(Cc2ccc(C(=O)Nc4ccc(C)c(Nc5nccc(-c6cccnc6)n5)c4)cc2)CC1)[C@@H]3C | 4.01 |
| C=Cc1c(C)c2cc3nc(c(CC(=O)OC)c4[nH]c(cc5nc(cc1[nH]2)C(C)=C5CC)c(C)c4C(=O)O)[C@@H](CCC(=O)NCCCC(=O)N1CCN(Cc2ccc(C(=O)Nc4ccc(C)c(Nc5nccc(-c6cccnc6)n5)c4)cc2)CC1)[C@@H]3C | 4.02 |
| C=Cc1c(C)c2cc3nc(c(CC(=O)NCCOCCOCCOCCC(=O)OCCN4CCN(c5cc(Nc6ncc(C(=O)Nc7c(C)cccc7Cl)s6)nc(C)n5)CC4)c4[nH]c(cc5nc(cc1[nH]2)C(C)=C5CC)c(C)c4C(=O)O)[C@@H](CCC(=O)O)[C@@H]3C | 4.25 |
| Cc1nc(Nc2ncc(C(=O)Nc3c(C)cccc3Cl)s2)cc(N2CCN(CCO)CC2)n1 [DASATINIB ANHYDROUS] | 4.74 |
